system: sarcoma 180 cells; test: Antitumor activity, sarcoma 180, drug given 4 days before inoculation (Test Examples 1 and 7); type: in vivo, ICR mice; settings: ICR mice, 1 mg/mouse, 4 days before i.p. inoculation of 1×10^5 sarcoma 180 cells
The threshold is inclusive: life span prolonging ratio (T/C) of exactly 200 counts as met; values below receive not met.

- COMPOUND: "CCCCCCCCCCCCCCCCCCC(=O)COCC(COP(=O)([O-])OCC[N+](C)(C)C)OC (centres unmarked) [Example 6]"
  SYSTEM_TESTED: "sarcoma 180 cells"
  LABEL: "met"
- COMPOUND: "CCCCCCCCCCCCCCC(=O)COCC(COP(=O)([O-])OCC[N+](C)(C)C)OC (centres unmarked) [Example 4]"
  SYSTEM_TESTED: "sarcoma 180 cells"
  LABEL: "met"
- COMPOUND: "CCCCCCCCCCCCCCCC(=O)COCC(COP(=O)([O-])OCC[N+](C)(C)C)OC (centres unmarked) [Example 1]"
  SYSTEM_TESTED: "sarcoma 180 cells"
  LABEL: "met"
- COMPOUND: "CCCCCCCCCCCCCCCCCCOCC(COP(=O)([O-])OCC[N+](C)(C)C)OC (centres unmarked) [compound (XIII), reference compound]"
  SYSTEM_TESTED: "sarcoma 180 cells"
  LABEL: "not met"
- COMPOUND: "CCCCCCCCCCCCCCCCC(=O)COCC(COP(=O)([O-])OCC[N+](C)(C)C)OC (centres unmarked) [Example 7]"
  SYSTEM_TESTED: "sarcoma 180 cells"
  LABEL: "not met"

---

Entries and their measured LD50 follow.
Assay: Toxicity testing, LD50 (Test Example 11)
Details: mouse, in vivo, ip; ICR mice, intraperitoneal, in physiological saline
Experimental: LD50 values were determined in ICR mice by intraperitoneally administering each test compound in the form of a solution in physiological saline.
READOUT_KIND: LD50

- COMPOUND: "CCCCCCCCCCCCCCCCCCOCC(COP(=O)([O-])OCC[N+](C)(C)C)OC (stereo not drawn) [compound (XIII), reference compound]"
  ASSAY_VALUE: "25 to 50 mg/kg"
- COMPOUND: "CCCCCCCCCCCCCCCCC(=O)COCC(COP(=O)([O-])OCC[N+](C)(C)C)OC (stereo not drawn)"
  ASSAY_VALUE: "> 150 mg/kg"
- COMPOUND: "CCCCCCCCCCCCCCCCC(=O)COCC(COP(=O)([O-])OCC[n+]1ccsc1)OC (stereo not drawn)"
  ASSAY_VALUE: "> 150 mg/kg"
